Experiment: Metabolic stability in liver microsomes
Conditions: monkey, liver microsomes
Starred links: 1 amine or outer side, 2 acyl side, 3 side chain; linkers in the order of their positions; H or OH if unused. Positions of bridges follow the written chain, without caps; N, C: chain ends. Non-standard residues stand in square brackets, D forms with d. Residues, ends and D or L forms follow the SMILES beside them. *: point of attachment. Orn(4R-OH,5R-OCH2CH2NMe3+) = C[N+](C)(C)CCO[C@@H](N[*:3])[C@H](O)C[C@H](N[*:1])C(=O)[*:2]; pTerphenylCO(4''-OnC5H11) = CCCCCOc1ccc(-c2ccc(-c3ccc(C(=O)*)cc3)cc2)cc1; hTyr(3S-OH,4S-OH) = N[C@H](C(=O)O)[C@H](O)[C@@H](O)c1ccc(O)cc1; Pro(3S-OH,4S-Me) = C[C@H]1CN[C@H](C(=O)O)[C@H]1O; Hyp = O=C(O)[C@@H]1C[C@@H](O)CN1
READOUT_TYPE: half-life

The recorded half-life for CCCCCOc1ccc(-c2ccc(-c3ccc(C(=O)N[C@H]4C[C@@H](O)[C@@H](OCC[N+](C)(C)C)NC(=O)[C@@H]5[C@@H](O)[C@@H](C)CN5C(=O)[C@H]([C@@H](C)O)NC(=O)[C@H]([C@H](O)[C@@H](O)c5ccc(O)cc5)NC(=O)[C@@H]5C[C@@H](O)CN5C(=O)[C@H]([C@@H](C)O)NC4=O)cc3)cc2)cc1 [CD101] ({pTerphenylCO(4''-OnC5H11)}-[Orn(4R-OH,5R-OCH2CH2NMe3+)]T[Hyp][hTyr(3S-OH,4S-OH)]T[Pro(3S-OH,4S-Me)]; lactam 1-C) is > 240 min

====

Assay: Plasma protein binding, ultracentrifugation
Type: in vitro ADME
Settings: human, 1 μg/ml, ∼500,000 × g 2.5 h at 37°C, LC-MS/MS, SEM, read-out: % of protein bound (SEM) (converted)
Starred links: 1 amine or outer side, 2 acyl side, 3 side chain; linkers in the order of their positions; H or OH if unused. Positions of bridges follow the written chain, without caps; N, C: chain ends. Non-standard residues stand in square brackets, D forms with d. Residues, ends and D or L forms follow the SMILES beside them. *: point of attachment. Orn(4R-OH,5R-OCH2CH2NMe3+) = C[N+](C)(C)CCO[C@@H](N[*:3])[C@H](O)C[C@H](N[*:1])C(=O)[*:2]; pTerphenylCO(4''-OnC5H11) = CCCCCOc1ccc(-c2ccc(-c3ccc(C(=O)*)cc3)cc2)cc1; Orn(4R-OH,5R-OH) = O=C([C@H](C[C@@H](O)[C@@H](O)N[*:3])N[*:1])[*:2]; hTyr(3S-OH,4S-OH) = N[C@H](C(=O)O)[C@H](O)[C@@H](O)c1ccc(O)cc1; Pro(3S-OH,4S-Me) = C[C@H]1CN[C@H](C(=O)O)[C@H]1O; Hyp = O=C(O)[C@@H]1C[C@@H](O)CN1
READOUT_TYPE: fraction unbound
API doc: respond with a numeric literal and nothing else, no unit.

The recorded fraction unbound for CCCCCOc1ccc(-c2ccc(-c3ccc(C(=O)N[C@H]4C[C@@H](O)[C@@H](O)NC(=O)[C@@H]5[C@@H](O)[C@@H](C)CN5C(=O)[C@H]([C@@H](C)O)NC(=O)[C@H]([C@H](O)[C@@H](O)c5ccc(O)cc5)NC(=O)[C@@H]5C[C@@H](O)CN5C(=O)[C@H]([C@@H](C)O)NC4=O)cc3)cc2)cc1 [anidulafungin] ({pTerphenylCO(4''-OnC5H11)}-[Orn(4R-OH,5R-OH)]T[Hyp][hTyr(3S-OH,4S-OH)]T[Pro(3S-OH,4S-Me)]; lactam 1-C) is 0.022

The recorded fraction unbound for CCCCCOc1ccc(-c2ccc(-c3ccc(C(=O)N[C@H]4C[C@@H](O)[C@@H](OCC[N+](C)(C)C)NC(=O)[C@@H]5[C@@H](O)[C@@H](C)CN5C(=O)[C@H]([C@@H](C)O)NC(=O)[C@H]([C@H](O)[C@@H](O)c5ccc(O)cc5)NC(=O)[C@@H]5C[C@@H](O)CN5C(=O)[C@H]([C@@H](C)O)NC4=O)cc3)cc2)cc1 [CD101] ({pTerphenylCO(4''-OnC5H11)}-[Orn(4R-OH,5R-OCH2CH2NMe3+)]T[Hyp][hTyr(3S-OH,4S-OH)]T[Pro(3S-OH,4S-Me)]; lactam 1-C) is 0.02
